# Tested on: c-Src
# method-summary: phosphorylation enrichment, bacterial display (enrichment ratio); higher = better substrate or ligand; peptides without Tyr show the background;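 also: 11-residue human phosphosite peptides and single-mutation variants displayed on the E. coli surface, counted by deep sequencing, each peptide's frequency after selection divided by its frequency in the unselected input library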;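 also: frequency after pTyr selection over input frequency; kinase dosed for 20-30% of maximal phosphorylation in three min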
Assign phosphorylation enrichment to each entry below.
Could you keep your reply to the number by itself?

Can you look up the measured phosphorylation enrichment of EACPSYSHVVL [CHST6_Y168_R166P] for me?
0.507

Can you look up the measured phosphorylation enrichment of KRISCYEARFQ [PFKFB3_Y194_S197R_YF] for me?
0.497

Can you look up the measured phosphorylation enrichment of IGRWVYPLTPE [EIF2B5_Y319_R315G] for me?
0.502

* * *

# system-under-test: Jak2 (UniProt O60674)
# Sequence (O60674 whole entry, looked up): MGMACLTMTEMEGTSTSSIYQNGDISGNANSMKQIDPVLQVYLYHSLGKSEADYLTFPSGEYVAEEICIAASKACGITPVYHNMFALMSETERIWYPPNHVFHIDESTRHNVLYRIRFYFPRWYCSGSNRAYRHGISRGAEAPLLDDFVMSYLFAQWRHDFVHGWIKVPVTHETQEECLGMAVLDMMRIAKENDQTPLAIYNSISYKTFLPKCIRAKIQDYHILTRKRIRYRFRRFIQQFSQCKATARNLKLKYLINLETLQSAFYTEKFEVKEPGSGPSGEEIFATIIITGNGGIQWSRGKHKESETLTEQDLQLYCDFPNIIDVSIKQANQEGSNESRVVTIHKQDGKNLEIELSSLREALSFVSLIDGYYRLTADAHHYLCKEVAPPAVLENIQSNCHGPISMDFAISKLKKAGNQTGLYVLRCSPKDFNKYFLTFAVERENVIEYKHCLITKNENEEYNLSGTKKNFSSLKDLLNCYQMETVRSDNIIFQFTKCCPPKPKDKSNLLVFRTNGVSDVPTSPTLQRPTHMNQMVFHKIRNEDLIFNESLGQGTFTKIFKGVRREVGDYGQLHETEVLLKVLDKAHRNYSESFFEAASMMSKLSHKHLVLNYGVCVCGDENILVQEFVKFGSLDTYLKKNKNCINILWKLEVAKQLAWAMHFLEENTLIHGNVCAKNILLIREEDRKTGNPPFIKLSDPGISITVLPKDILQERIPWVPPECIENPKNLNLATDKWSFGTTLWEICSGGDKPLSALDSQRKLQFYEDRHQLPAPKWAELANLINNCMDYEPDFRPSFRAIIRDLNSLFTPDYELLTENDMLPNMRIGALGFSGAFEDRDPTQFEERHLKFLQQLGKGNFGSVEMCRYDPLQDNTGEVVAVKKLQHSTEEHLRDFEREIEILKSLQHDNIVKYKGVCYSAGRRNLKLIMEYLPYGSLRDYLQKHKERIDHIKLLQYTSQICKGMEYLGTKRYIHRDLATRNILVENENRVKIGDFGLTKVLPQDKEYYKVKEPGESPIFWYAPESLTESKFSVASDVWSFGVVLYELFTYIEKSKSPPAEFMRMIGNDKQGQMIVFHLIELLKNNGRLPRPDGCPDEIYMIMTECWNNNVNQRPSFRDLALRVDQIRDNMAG
# method-summary: phosphorylation enrichment, bacterial display (enrichment ratio); higher = better substrate or ligand; peptides without Tyr show the background
property: phosphorylation enrichment
Could you keep your reply to the number by itself?

Can you look up the measured phosphorylation enrichment of IVRSLYEDQED [VHL_Y185_L188Q] for me?
1.3

Can you look up the measured phosphorylation enrichment of HEEKVYLSRGD [CRACR2A_Y141] for me?
0.784

Can you look up the measured phosphorylation enrichment of KKFPDYIQSAM [SGMS2_Y59_I62S_YF] for me?
0.512

Can you look up the measured phosphorylation enrichment of SVTCTYYPALN [TP53_Y126_S127Y] for me?
1.36

Can you look up the measured phosphorylation enrichment of PLLLSYFLIKW [NUP160_Y773_YF] for me?
3.01
